FYI, the data here is from PubChem BioAssay (NCI).

- System: MDA-MB-435 melanoma
- Protocol details: NCI-60 one-dose screen, 48 h (100 = growth as untreated, 0 = no growth, -100 = all killed)
- Study conditions: 10 µM unless noted
About 83,000 compounds went through this panel and 20% of them were active in at least one assay; those are over-represented in the sample as a whole.
Assay readout: growth (%)
Write down the numeric answer in % and omit the unit.

O=C(/C=C/c1ccc(O)c(O)c1)NC1CCOC1O (stereo unspecified): 101
COc1ccc(Cc2nn(CC(=O)N/N=C/c3ccc(F)cc3)c(=O)c3c(C)noc23)cc1: 48.1
COc1cc2c(c(OC)c1OC)C(=O)CC(c1cccc(NC(=O)c3cc(N)ccc3Cl)c1)O2 (stereo unspecified): -41.3
CC1=C(C(=O)OCc2ccccc2)C(c2ccc(-n3cncn3)cc2)n2c(nc3ccccc32)N1 (stereo unspecified): -12.5

Sure, the documented growth for `COc1cc(CNC(=O)/C=C/c2ccc3c(c2)OCO3)ccc1OCc1cn(-c2cccc(C(F)(F)F)c2)nn1` is 39.9

// sample `COc1ccc(C(=O)/C=C/c2ccc(OC)c(OCc3ccccc3)c2)cc1OC` , its growth was 22.7

// field: growth; key: `O=C(COc1ccc(NC(=O)Nc2ccc(Cl)c(Cl)c2)cc1)N=Nc1c(O)[nH]c2ccc(Br)cc12` ; value = -51.3

The reported value for `CC(C)c1sc(NC(=O)c2cc(NC(=O)c3cc(NC(=O)c4nccn4C)cn3C)cn2C)nc1C(=O)NCCCN(C)C` in terms of growth is 70.9

response.value for `N/C(=N\c1nc2ccccc2s1)NC(=O)NCCCCCCO` (field: growth) = 41.2

Measured growth of `CCCCCCCCc1ccc(C(=O)Nc2ccc(C)cc2C(=O)O)cc1C` : 105

Lab book: growth of `COc1cc2oc(-c3cccc(C(=O)Nc4ccc(Cl)cc4)c3)cc(=O)c2c(OCCNC(=O)[C@H](CO)NC(=O)OC(C)(C)C)c1OC` noted as 3.55

----------
- Test system: MDA-MB-468 breast
- Protocol details: NCI-60 one-dose screen, 48 h (100 = growth as untreated, 0 = no growth, -100 = all killed)
- Study conditions: 10 µM unless noted
This is part of a sample that, as a whole, favours compounds with a hit. Of some 83,000 tested, about 20% had one in any assay.
Assay readout: growth (%)
Numbers only; they are read as %.

# count of solved cases: 3
C/C(=N\N=C\c1cc([N+](=O)[O-])ccc1Cl)c1ccc2c(c1)Nc1ccccc1S2: 34.1
COc1ccc(NC(=O)Cn2c3c(sc2=O)[C@H]2[C@@H](O)[C@@H](O)[C@H](O)[C@@H]2CS3)cc1: 107
C=C1CC[C@@H]2[C@]3(C)COC(c4cn[nH]c4-c4ccc(F)cc4)O[C@@H]3CC[C@@]2(C)[C@@H]1C/C=C1/C(=O)OCC1O (some centres not stated): -82.4

The reported growth of the molecule `CCOc1ccc(-c2c(C#N)c(-c3ccc(Cl)cc3)nc3n[nH]c(-c4ccc(Cl)cc4)c23)cc1OC` was 50.5

Sample C=C1CC[C@@H]2[C@]3(C)COC(c4ccco4)O[C@@H]3CC[C@@]2(C)[C@@H]1C/C=C1/C(=O)OCC1OC(C)=O (some centres not stated) ; growth observed: -2.37

Measured growth, CC1(C)CC[C@]2(C(=O)O)CC[C@]3(C)C(=CCC4[C@@]5(C)C[C@@H](O)[C@@H]6OC(c7ccccc7Br)OC[C@@]6(C)C5CC[C@]43C)C2C1 (some centres not stated) : 18.4

The recorded growth for `COc1ccc(C(=O)/C=C/c2ccccc2Cl)cc1S(N)(=O)=O` is 109

Looking up CN(C)c1nc(NCCNS(=O)(=O)c2ccc(C3=Nc4c(N)nc(N)nc4NC(c4ccc(F)cc4)C3)cc2)nc(Nc2ccc(F)cc2)n1 (configuration not stated) , I found its growth recorded as -40.7

get_value(item= `CCCCCCn1c(O)c(N=Nc2nc(-c3cc4ccccc4oc3=O)cs2)c2ccccc21` , readout=growth) returns 45.3

Recorded growth (molecule CCOC(=O)C1=C(N)N(c2ccccc2)C2=C(C(=O)CC(C)(C)C2)C1c1ccc(N2CCOCC2)cc1 (configuration not stated) ): 89.6

----------
- System: IGROV1 ovarian
- Protocol details: NCI-60 one-dose screen, 48 h
- Study conditions: 10 µM unless noted
Compounds without any hit were thinned out: in the full panel of roughly 83,000, 20% have a hit. Active and inactive are the calls of the source. How the source made its calls: active means growth percent below 10; inactive means the rest.
Choose one outcome from this list and give only that: label 1 (active), label 0 (inactive)

Cc1ccc(-c2nc(Nc3ccccc3S(N)(=O)=O)c3ccccc3n2)cc1: label 0
Cc1ncsc1-c1ccc(CNC(=O)[C@@H]2C[C@@H](O)CN2C(=O)[C@@H](NC(=O)C2(F)CC2)C(C)(C)C)c(OCCOCCOCCOCCOc2nc(Nc3cc(S(C)(=O)=O)ccc3N[C@@H](c3cccc4c3OC(F)(F)O4)c3ncccc3Cl)nc(N3CCNCC3)n2)c1: label 0

Prompt: Dear all, I need the recorded test outcome for `CSc1ccccc1NC(=O)c1ccc2nnn(/C(C#N)=C/c3ccccn3)c2c1` , thank you.
Completion: label 1

Prompt: Which outcome was assigned to `Cc1cc(C)n(-c2ccc3nnc(-c4ccccc4)n3n2)n1` in this test?
Completion: label 0

----------
- Test system: IGROV1 ovarian
- Protocol details: NCI-60 one-dose screen, 48 h (100 = growth as untreated, 0 = no growth, -100 = all killed)
- Study conditions: 10 µM unless noted
This is part of a sample that, as a whole, favours compounds with a hit. Of some 83,000 tested, about 20% had one in any assay.
Note that class boundaries on growth are lo = under 20%, med = from 20% up to 70%, hi = 70% and over

COc1ccc(Cc2nn(CC(=O)N/N=C/c3ccc(F)cc3)c(=O)c3c(C)noc23)cc1: med
Nc1cccc(SCc2cc3ccccc3[nH]c2=O)c1: hi
CCC(C)(C)c1ccc(OCCCCCCN2CCN(c3ccncc3)CC2)cc1: med
COc1cccc(COc2ccc(NC(=O)Nc3ccc(Cl)c(C(F)(F)F)c3)cc2)c1: med
CN1CCN(c2ccc(C(=O)/C=C/c3ccc(Br)cc3)cc2)CC1: med

Prompt: State the class of the molecule shown: `O=c1[nH]c2ccccc2cc1CSc1nccc(-c2ccc3ccccc3c2)n1`
Completion: hi

Prompt: Class label required: O=C(NNc1nc2cc(F)ccc2n2c(CN3CC4CNCC4C3)ccc12)c1ccncn1 (centres undefined)
Completion: med

Prompt: Just checking, what class would you give `O=C(N=Nc1c(O)[nH]c2ccc([N+](=O)[O-])cc12)c1ccc2nc(-c3ccccc3)[nH]c2c1` here?
Completion: hi

----------
- Tested on: HT29 colon
- Protocol details: NCI-60 one-dose screen, 48 h
- Study conditions: 10 µM unless noted
Compounds without any hit were thinned out: in the full panel of roughly 83,000, 20% have a hit. Activity calls are given as the source filed them. How the source made its calls: active means growth percent below 10; inactive means the rest.
Log the outcome using a class from 1 (yes) = active, 0 (no) = inactive

Examples from the recorded data:
C#CCOc1ccc(/C=N/Nc2nc(-c3cc4cc(OC)ccc4oc3=O)cs2)cc1OC: 0 (no)
CCC(C)(C)c1ccc(OCCCCN2CCN(c3ccncc3)CC2)cc1: 1 (yes)
COc1ccc2c(c1)c(-c1cc3nc(-c4cn(C)c5ncc(Br)cc45)cc(N)n3n1)cn2C: 1 (yes)
COc1ccc(C2=NN(C(C)=O)C(c3ccc(OCc4ccc(Cl)cc4)c(OC)c3)C2)cc1OC (stereo not given): 0 (no)

Prompt: Recorded test call requested for `COc1ccc(-c2ccnc(SCc3cc4cc(OC)ccc4[nH]c3=O)n2)cc1`
Completion: 0 (no)

Prompt: Please share the test call associated with `Cn1cc(-c2nnc(N)nc2-c2c[nH]c3ccc(Br)cc23)c2cc(Br)cnc21` .
Completion: 0 (no)

----------
- Test system: SNB-19 CNS
- Protocol details: NCI-60 one-dose screen, 48 h (100 = growth as untreated, 0 = no growth, -100 = all killed)
- Study conditions: 10 µM unless noted
Compounds without any hit were thinned out: in the full panel of roughly 83,000, 20% have a hit.
Assay readout: growth (%)
Field format: number, assumed %, no unit text.

Solved entries:
O=S(=O)(Nc1cccc(-n2cnc3cc(-c4ccc(O)cc4)ccc32)c1)C1CC1: 37.7
C=CC[N+](C)(C)CCn1c2ccccc2c2nc3cc(C)c(C)cc3nc21: 19.2
COc1ccc(C(=O)/C=C/c2ccc(Cl)c(Cl)c2)cc1S(N)(=O)=O: 5.07

Value of growth reported for the compound C=C1CCC2C3(C)COC(c4cccs4)OC3CCC2(C)C1CC(Sc1ccccc1)C1=CCOC1=O (centres undefined) is 95.4

# growth of `Cn1cc(-c2cc(N)n3nc(-c4cn(C)c5ncccc45)cc3n2)c2cccnc21` = 101

Record `Brc1ccc(-c2n(Cc3ccc4ccccc4c3)c(-c3ccccc3)c(-c3ccccc3)[n+]2Cc2ccc3ccccc3c2)cc1` , field growth: -93.4

Kindly note the recorded growth for OCC1(CCCc2ccccc2)CCCN(c2nccc3ccccc23)C1 (centres undefined) , which is 44.2
